biological target: Tubulin (Bos taurus, UniProt Q6B856+Q862L2+Q862F3); test: Inhibition of bovine brain tubulin preincubated for 20 mins by turbidimetry
Would you mind telling me the reported IC50 of each entry?
Entry rule: numbers only, all in µM.

Q: Field: IC50 (Tubulin (Bos taurus, UniProt Q6B856+Q862L2+Q862F3)). Entry: O=C(OCCn1c([N+](=O)[O-])cnc1/C=C\c1ccc(Cl)cc1Cl)c1c[nH]c2ccccc12
Result: 2.4

Q: Field: IC50 (Tubulin (Bos taurus, UniProt Q6B856+Q862L2+Q862F3)). Entry: O=C(OCCn1c([N+](=O)[O-])cnc1/C=C\c1ccc(Br)cc1)c1c[nH]c2ccccc12
Result: 123.3

Q: Field: IC50 (Tubulin (Bos taurus, UniProt Q6B856+Q862L2+Q862F3)). Entry: O=C(OCCn1c([N+](=O)[O-])cnc1/C=C/c1cccc(Cl)c1)c1c[nH]c2ccccc12
Result: 103
